Experiment: Hepatic intrinsic clearance in mouse liver microsomes at 1 uM preincubated for 5 mins followed by NADPH addition and measured up to 45 mins by LC-MS/MS analysis
Assay type: ADME, Microsome
Conditions: read-out: CLH
Recorded measurements of CLint scaled at 1 µM, one per entry
READOUT TYPE: CLint scaled at 1 µM (mL/min/kg)

• CC(C)Oc1cc(F)cc2c(N3CCN(c4ccccc4F)CC3)c(C#N)cnc12 = 76.2
• [2H]C([2H])([2H])Oc1cc(F)cc2c(N3CCN(c4ccccc4F)CC3)c(C#N)cnc12 = 84.4
• COc1cc(F)cc2c(N3CCN(c4ccccc4F)CC3)c(C#N)cnc12 = 87
• N#Cc1cnc2c(OC3CCOC3)cccc2c1N1CCN(c2ccccc2F)CC1 (racemic) = 75.8
• N#Cc1cnc2c(N3CCOCC3)cccc2c1N1CCN(c2ccccc2F)CC1 = 76.2
